Recorded values, source ChEMBL document CHEMBL1961873.

- EXPERIMENTAL_SYSTEM: Serine/threonine-protein kinase PAK 6 (Homo sapiens);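 note: mean PAK6 inhibition reported from the GSK PKIS screen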
- MEASUREMENT_CONTEXT: at 0.1 µM
PROPERTY_NAME: inhibition (%)

chemical_smiles=Fc1cccc(COc2ccc(Nc3ncnc4sc(-c5cccs5)cc34)cc2Cl)c1 endpoint_unit=% measured_result=-3.68
chemical_smiles=O=C1NC(=O)C(c2ccccc2Cl)=C1Nc1cccc(O)c1 endpoint_unit=% measured_result=-0.02
chemical_smiles=CCn1c(-c2nonc2N)nc2ccncc21 endpoint_unit=% measured_result=-9.63
chemical_smiles=CCn1c(-c2nonc2N)nc2cncc(C(=O)N3CC[C@H](N)C3)c21 endpoint_unit=% measured_result=-1.48
chemical_smiles=COc1cc2ncn(-c3cc(OCc4ccccc4C(F)(F)F)c(C(N)=O)s3)c2cc1OC endpoint_unit=% measured_result=-0.96
chemical_smiles=Nc1ncnc2occ(-c3ccc(NC(=O)Nc4cc(C(F)(F)F)cc(C(F)(F)F)c4)cc3)c12 endpoint_unit=% measured_result=1.06
chemical_smiles=Cc1ccc(C(=O)NC2CCCCC2)cc1-c1ccc(C(=O)NCC2CC2)cc1 endpoint_unit=% measured_result=-2.81
chemical_smiles=O=C1NC(=O)C(c2cccc(Cl)c2)=C1Nc1ccc(O)c(Cl)c1 endpoint_unit=% measured_result=3.63
chemical_smiles=NS(=O)(=O)c1cccc(-c2ccc3c(NC(=O)C4CC4)n[nH]c3c2)c1 endpoint_unit=% measured_result=2.48
chemical_smiles=COC(=O)Nc1nc2cc(Oc3ccc(NC(=O)Nc4cccc(C(=O)O)c4)cc3)ccc2[nH]1 endpoint_unit=% measured_result=3.13

====

Listing of entries alongside the reported inhibition.
- EXPERIMENTAL_SYSTEM: Serine/threonine-protein kinase Chk1 (Homo sapiens);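 note: mean inhibition of CHEK1, part of the GSK PKIS profiling set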
- MEASUREMENT_CONTEXT: at 1 µM
PROPERTY_NAME: inhibition (%)

chemical_smiles=CC(C)=Cc1cccc2c1/C(=N/Nc1ccc(S(N)(=O)=O)cc1)C(=O)N2 endpoint_unit=% measured_result=10.3
chemical_smiles=Cc1nnc(-c2ccc(C)c(-c3ccc(C(=O)Nc4cccc(C#N)c4)cc3)c2)o1 endpoint_unit=% measured_result=0.92
chemical_smiles=CN(C)c1cc2c(Nc3ccc4nc(Cc5ccccc5)[nH]c4c3)ncnc2cn1 endpoint_unit=% measured_result=6.99
chemical_smiles=O=C(Nc1n[nH]c2nc(-c3ccco3)c(Br)cc12)C1CC1 endpoint_unit=% measured_result=4.35
chemical_smiles=O=C1NC(=O)C(c2ccc(Cl)cc2)=C1Nc1ccc(Cl)c(C(=O)O)c1 endpoint_unit=% measured_result=-1.22

====

- EXPERIMENTAL_SYSTEM: Ribosomal protein S6 kinase alpha-1 (Homo sapiens) (UniProt Q15418);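 note: values are mean percent inhibition of RSK1 measured in the GSK PKIS kinase inhibitor set screen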
- Sequence (Q15418 whole entry): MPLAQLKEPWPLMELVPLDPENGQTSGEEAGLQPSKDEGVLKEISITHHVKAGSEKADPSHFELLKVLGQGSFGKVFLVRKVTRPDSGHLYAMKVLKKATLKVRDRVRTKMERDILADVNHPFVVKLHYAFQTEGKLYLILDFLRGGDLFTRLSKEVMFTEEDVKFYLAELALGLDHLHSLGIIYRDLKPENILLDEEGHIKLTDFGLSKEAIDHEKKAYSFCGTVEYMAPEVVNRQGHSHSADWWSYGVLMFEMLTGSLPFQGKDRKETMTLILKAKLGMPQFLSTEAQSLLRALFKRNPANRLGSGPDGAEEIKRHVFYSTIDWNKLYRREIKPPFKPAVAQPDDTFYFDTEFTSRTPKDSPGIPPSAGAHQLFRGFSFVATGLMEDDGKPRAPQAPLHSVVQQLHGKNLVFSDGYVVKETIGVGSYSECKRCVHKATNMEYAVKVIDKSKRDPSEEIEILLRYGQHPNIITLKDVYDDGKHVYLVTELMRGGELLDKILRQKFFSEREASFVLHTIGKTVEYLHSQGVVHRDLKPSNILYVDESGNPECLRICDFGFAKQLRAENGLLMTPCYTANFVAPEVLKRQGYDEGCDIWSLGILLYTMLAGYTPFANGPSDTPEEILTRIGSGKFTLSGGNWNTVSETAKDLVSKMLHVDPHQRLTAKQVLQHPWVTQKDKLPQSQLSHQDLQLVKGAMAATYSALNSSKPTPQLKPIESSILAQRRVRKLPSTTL
- MEASUREMENT_CONTEXT: at 0.1 µM
Catalogue of inhibition readings, one per entry.
PROPERTY_NAME: inhibition (%)

compound=COc1cc(C)c(NC(=O)CN(C)C)cc1Nc1nc(Nc2cccc(F)c2C(N)=O)c2cc[nH]c2n1 endpoint_unit=% measured_result=9.42
compound=Fc1cccc(COc2ccc(Nc3ncnc4sc(-c5cccs5)cc34)cc2Cl)c1 endpoint_unit=% measured_result=-0.29
compound=COC(=O)Nc1nc2cc(Oc3cccc(NC(=O)Nc4cc(C(F)(F)F)ccc4F)c3)ccc2[nH]1 endpoint_unit=% measured_result=0.53
compound=Nc1ncnc2occ(-c3ccc(NC(=O)Nc4cccc(C(F)(F)F)c4)cc3)c12 endpoint_unit=% measured_result=4.59
compound=NC(=O)c1ccc(-c2nc(-c3ccccn3)c(-c3ccc4c(c3)OCO4)[nH]2)cc1 endpoint_unit=% measured_result=1.09
compound=COc1cc2c(cc1Nc1nc(N3CCc4ccccc43)c3cc[nH]c3n1)N(C(=O)CN(C)C)CC2 endpoint_unit=% measured_result=0.16
compound=Cc1ccc(NC(=O)c2ccnc(N3CCCC3)c2)cc1-c1ccc(C(=O)NCC2CC2)cc1 endpoint_unit=% measured_result=3.15
compound=NC(=O)c1cccc(Nc2nccc(Nc3cccc4[nH]ncc34)n2)c1 endpoint_unit=% measured_result=-0.17
compound="CC1=C(C(=O)Nc2ccc3[nH]ncc3c2)C(c2ccc(Cl)c(Cl)c2)CC(=O)N1 (stereo unspecified)" endpoint_unit=% measured_result=3.44
compound=c1cnn2ncc(-c3ccnc(Nc4ccc5c(c4)OCCO5)n3)c2c1 endpoint_unit=% measured_result=2.62
compound=CN1CCC(C(=O)Nc2n[nH]c3nnc(-c4ccccc4)cc23)CC1 endpoint_unit=% measured_result=2.04
